Just for reference, PubChem BioAssay AID1159580 is where these values come from.

test: chemical genetic growth profiling, strain panel (AID 1159580);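 further: tested at 20 µM; growth read once vehicle control cultures reached saturation at 30 °C; 1 = growth at the plate median or of vehicle wells; lower values mean less growth of the strain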; details: S. cerevisiae deletion strains, growth OD, locus YER110C, stronger effect = lower value
Hit rate of the full screen: of about 5,500 compounds, about 2,000 (36%) were called active. Roughly 18% stayed inconclusive and do not appear here. This is one part of the list.
Property label: normalized growth
// keep it numeric: no unit symbol after the value

Compound: CC(C)C1CCC(C(=O)N[C@@H](Cc2ccccc2)C(=O)O)CC1 (stereo partly specified)
normalized growth: 1.02

// normalized growth lookup, key: OC[C@H]1O[C@@H](Oc2ccc(O)cc2)[C@H](O)[C@@H](O)[C@@H]1O 1.03

// normalized growth lookup, key: COc1ccc(NS(=O)(=O)c2ccc(N)cc2)nn1 0.992

// normalized growth lookup, key: O=C(O)c1cc(=O)c2ccccc2[nH]1 0.978

// normalized growth lookup, key: CC[C@H]1OC(=O)[C@H](C)[C@@H](O[C@H]2C[C@@](C)(OC)[C@@H](O)[C@H](C)O2)[C@H](C)[C@@H](O[C@@H]2O[C@H](C)C[C@H](N(C)C)[C@H]2O)[C@](C)(O)C[C@@H](C)/C(=N/OCOCCOC)[C@H](C)[C@@H](O)[C@]1(C)O 1

// normalized growth lookup, key: CC(C)=CCC/C(C)=C/CO 0.985

// normalized growth lookup, key: C[C@]12CC[C@@H](O)C[C@H]1CCc1ccccc12 0.999

// normalized growth lookup, key: COC(=O)C[C@H]1C(C)(C)[C@@H](OC(C)=O)[C@@H]2CC3=C4CC(=O)O[C@@H](c5ccoc5)[C@]4(C)CCC3[C@@]1(C)C2=O (stereo partly specified) 1

// normalized growth lookup, key: CCCc1ncc(C[n+]2ccccc2C)c(N)n1 0.99

// normalized growth lookup, key: O=c1c(O)c(-c2ccccc2)oc2ccccc12 0.987

====

test: chemical genetic growth profiling, strain panel (AID 1159580); settings: S. cerevisiae deletion strains, growth OD, locus YLR027C, strain aat2
Out of some 5,500 compounds screened, about 2,000 (36%) were called active. Inconclusive results (about 18%) are left out. Rule as the data show it: active = normalized growth mostly below about 0.91 (no sharp cut-off); inconclusive = no clear call, values can overlap the other calls; inactive = mostly above about 0.92. This is one part of the list.
Please reply with one of these outcomes: active, inactive

Compound: CC(=O)O[C@@H]1C2CC[C@@H]3C1(C[C@@H](O)[C@@]1(O)[C@@H](C[C@H](O)C1(C)C)[C@]3(C)O)C[C@@]2(C)O (stereo partly specified)
Cat: inactive
//
Compound: CCCc1ncc(C[n+]2ccccc2C)c(N)n1
Cat: inactive
//
Compound: O=C(c1ccccc1)c1ccc2n1CCC2C(=O)O (stereo unspecified)
Cat: inactive
//
Compound: COCC1=C(C(=O)OC(C)OC(=O)OC(C)C)N2C(=O)[C@@H](NC(=O)/C(=N\OC)c3csc(N)n3)[C@H]2SC1 (stereo partly specified)
Cat: inactive
//
Compound: COc1ccc([C@@H](C)C(=O)c2ccc(O)cc2O)cc1
Cat: inactive
//
Compound: CCC1(C2=NCCN2)Cc2ccccc2O1 (stereo unspecified)
Cat: inactive
//
Compound: CC(=O)NC1C(O)OC(COS(=O)(=O)O)C(OC2OC(C(=O)O)C(OC3OC(CO)C(OC4OC(C(=O)O)C(O)C(O)C4OS(=O)(=O)O)C(OS(=O)(=O)O)C3NS(=O)(=O)O)C(O)C2OS(=O)(=O)O)C1O (stereo unspecified)
Cat: inactive
//
Compound: C=C[C@H]1CN2CC[C@H]1C[C@H]2[C@H](O)c1ccnc2ccccc12
Cat: inactive

Given CCCCCCCCCCCCCCCC(=O)OC[C@H](NC(=O)C(Cl)Cl)[C@H](O)c1ccc([N+](=O)[O-])cc1 , state the outcome it received in this test. inactive

Given CN1CCCCC1c1ccc(-c2cccnc2)nc1 (stereo unspecified) , state the outcome it received in this test. inactive

Given C=C(C)C1Cc2c(ccc3c(=O)c4c(oc23)COc2cc(OC)c(OC)cc2-4)O1 (stereo unspecified) , state the outcome it received in this test. inactive

Given C/C(=C\CO)CC[C@H](C)CCC[C@H](C)CCCC(C)C , state the outcome it received in this test. active

Given COc1cc2c(cc1OC)C(C)NCC2 (stereo unspecified) , state the outcome it received in this test. inactive

====

Form field: normalized growth (one value per entry).
test: chemical genetic growth profiling, strain panel (AID 1159580);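 further: tested at 20 µM; growth read once vehicle control cultures reached saturation at 30 °C; 1 = growth at the plate median or of vehicle wells; lower values mean less growth of the strain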; conditions: S. cerevisiae deletion strains, growth OD, locus YPL153C, strain RAD53, stronger effect = lower value
The campaign covered roughly 5,500 compounds. About 2,000 (36%) were called active. Not shown: some 18% with an inconclusive outcome. The list shows a part of the results.

Worked examples follow.
Compound: Cc1csc2ncnc(N3CCN(C(=S)Nc4ccc(C(F)(F)F)cc4)CC3)c12
Endpoint result: 0.932 (inactive)
--
Compound: O=C(/C=C/c1ccc(Cl)cc1)Nc1cccc(Cl)c1
Endpoint result: 0.863 (inactive)
--
Compound: COC(=S)Nc1cc(Cl)cc(Cl)c1
Endpoint result: 0.588 (active)
--
Compound: Cc1csc2ncnc(N3CCN(C(=O)Nc4ccc(SC(F)(F)F)cc4)CC3)c12
Endpoint result: 0.914 (inactive)
--
Compound: CC(=O)c1ccc(Sc2ccccc2)c([N+](=O)[O-])c1
Endpoint result: 0.79 (inactive)

// normalized growth lookup, key: C=CCC1C(=O)N(S(=O)(=O)c2ccc(Cl)cc2)N=C1CCC (stereo unspecified) 0.977 (inactive)

// normalized growth lookup, key: Cc1cc(Sc2c([N+](=O)[O-])cc(C(F)(F)F)cc2[N+](=O)[O-])c(Cl)cc1Cl 0.965 (inactive)

// normalized growth lookup, key: Cc1csc2c(N3CCN(C(=S)Nc4ccc(C(F)(F)F)cc4)CC3)ncnc12 0.979 (inactive)

// normalized growth lookup, key: NNC(=O)c1oc2nc(-c3ccccc3)cc(-c3ccccc3)c2c1N 0.953 (inactive)

// normalized growth lookup, key: CC(C)Sc1c(Cl)cccc1NC(=O)Nc1ccccc1 0.867 (inactive)

// normalized growth lookup, key: CC(C)OC(=O)Nc1cc(Cl)cc(Cl)c1 0.8 (inactive)

====

Form field: normalized growth (one value per entry).
assay: chemical genetic growth profiling, strain panel (AID 1159580);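 further: tested at 20 µM; growth read once vehicle control cultures reached saturation at 30 °C; 1 = growth at the plate median or of vehicle wells; lower values mean less growth of the strain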; details: S. cerevisiae deletion strains, growth OD, locus YKL068W, stronger effect = lower value
Screen size: about 5,500 compounds; about 2,000 (36%) were called active. Another 18% or so got no clear call; they are omitted. Some of the results follow.
// keep it numeric: no unit symbol after the value

Compound: COc1ccccc1OCC(O)COC(N)=O (stereo not drawn)
Endpoint result: 0.989
//
Compound: CC(C)N1C(=O)c2ccccc2NS1(=O)=O
Endpoint result: 0.994
//
Compound: CC(C)C1CCC(C(=O)N[C@@H](Cc2ccccc2)C(=O)O)CC1 (stereo partly drawn)
Endpoint result: 1
//
Compound: O=C(O)c1cc(O)c2c(c1)C(=O)c1cc(O)cc(O)c1C2=O
Endpoint result: 0.913
//
Compound: COP(=O)(NC(C)=O)SC (stereo not drawn)
Endpoint result: 1.01

// normalized growth lookup, key: O=C1c2cccc(O)c2C(=O)c2c(O)cccc21 0.967

====

Form field: normalized growth (one value per entry).
assay: chemical genetic growth profiling, strain panel (AID 1159580);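 further: tested at 20 µM; growth read once vehicle control cultures reached saturation at 30 °C; 1 = growth at the plate median or of vehicle wells; lower values mean less growth of the strain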; details: S. cerevisiae deletion strains, growth OD, locus YCL069W, strain vba3, stronger effect = lower value
The whole screen tested about 5,500 compounds, of which about 2,000 (36%) were called active. Inconclusive results (about 18%) are left out. The list shows a part of the results.

Worked examples follow.
Molecule: O=C1C=CC(=O)c2c(O)c(Cl)c(Cl)c(O)c21
normalized growth: 0.0675 (active)
//
Molecule: CCC[C@@H]1C[C@@H](C(=O)N[C@H]([C@H]2O[C@H](SC)[C@H](O)[C@@H](O)[C@H]2O)[C@H](C)O)N(C)C1
normalized growth: 0.971 (inactive)
//
Molecule: OC[C@H]1O[C@@H](Oc2ccc(O)cc2)[C@H](O)[C@@H](O)[C@@H]1O
normalized growth: 1.01 (inactive)
//
Molecule: COc1ccc(-c2c(O)c3c(OC)c4c(cc3oc2=O)OC(C)(C)C=C4)cc1
normalized growth: 0.955 (inactive)
//
Molecule: COc1cc([C@@H]2c3cc4c(cc3[C@H](O)[C@H]3COC(=O)[C@H]23)OCO4)cc(OC)c1OC
normalized growth: 1.01 (inactive)
//
Molecule: O=C(O)CC[N+](=O)[O-]
normalized growth: 0.996 (inactive)

// normalized growth lookup, key: O=C(c1ccccc1)c1ccc2n1CCC2C(=O)O (stereo not drawn) 0.979 (inactive)

// normalized growth lookup, key: C=C(C)C1Cc2c(ccc3c(=O)c4c(oc23)COc2cc(OC)c(OC)cc2-4)O1 (stereo not drawn) 0.999 (inactive)

// normalized growth lookup, key: CC(=O)Oc1c(C)c(C)c2c(c1C)CCC(C)(CCCC(C)CCCC(C)CCCC(C)C)O2 (stereo not drawn) 0.982 (inactive)

// normalized growth lookup, key: O=c1c(O)c(-c2ccccc2)oc2cccc(O)c12 0.816 (active)

// normalized growth lookup, key: CON 0.976 (inactive)

// normalized growth lookup, key: COc1cc(OC)c2c(OC)c(-c3ccc4c(c3)OCO4)c(=O)oc2c1 1.01 (inactive)

// normalized growth lookup, key: CC(C)=CCC/C(C)=C/CO 0.986 (inactive)

// normalized growth lookup, key: O=C(/C=C/c1ccc(O)cc1)c1ccc(O)cc1O 1.01 (inactive)

// normalized growth lookup, key: CC(=O)OC1CCC23CC1(C)CCC2C(C)(C)CC3OC(C)=O (stereo not drawn) 0.991 (inactive)

// normalized growth lookup, key: CC(=O)O[C@H]1CC2CCC3C(CC[C@@]4(C)C3C[C@H]([N+]3(C)CCCCC3)[C@@H]4OC(C)=O)[C@@]2(C)C[C@@H]1N1CCCCC1 (stereo partly drawn) 1.02 (inactive)

// normalized growth lookup, key: CC(=O)NS(=O)(=O)c1ccc(N)cc1 1 (inactive)

// normalized growth lookup, key: CC(=O)OC1CCC2(O)CC1(C)CCC1C2CC1(C)C (stereo not drawn) 1.03 (inactive)

// normalized growth lookup, key: O=C(/C=C/c1ccc(O)cc1)c1ccccc1O 0.256 (active)

// normalized growth lookup, key: C=C[C@H]1CN2CC[C@H]1C[C@H]2[C@H](O)c1ccnc2ccccc12 1.01 (inactive)

// normalized growth lookup, key: Oc1cc2c(cc1O)C(c1ccccc1)CNCC2 (stereo not drawn) 1 (inactive)

// normalized growth lookup, key: CC1(C)CC23C(=O)CCC(O)C2(C)CCC13 (stereo not drawn) 0.984 (inactive)

// normalized growth lookup, key: CN1CCN(C2=Nc3cc(Cl)ccc3Nc3ccccc32)CC1 0.981 (inactive)
